assayed target: CDK7/cyclinH/MAT1 (Homo sapiens, UniProt P50613)
Sequence (P50613 whole entry): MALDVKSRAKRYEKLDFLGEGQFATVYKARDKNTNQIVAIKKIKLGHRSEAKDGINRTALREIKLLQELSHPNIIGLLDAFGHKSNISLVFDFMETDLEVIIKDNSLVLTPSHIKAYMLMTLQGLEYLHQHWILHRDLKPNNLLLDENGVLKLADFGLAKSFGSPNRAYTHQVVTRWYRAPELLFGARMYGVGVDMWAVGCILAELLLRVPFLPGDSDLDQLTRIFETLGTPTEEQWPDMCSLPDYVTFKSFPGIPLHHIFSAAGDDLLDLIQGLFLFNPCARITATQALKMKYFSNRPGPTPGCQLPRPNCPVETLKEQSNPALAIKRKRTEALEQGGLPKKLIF
Sequence (P51946 whole entry partner): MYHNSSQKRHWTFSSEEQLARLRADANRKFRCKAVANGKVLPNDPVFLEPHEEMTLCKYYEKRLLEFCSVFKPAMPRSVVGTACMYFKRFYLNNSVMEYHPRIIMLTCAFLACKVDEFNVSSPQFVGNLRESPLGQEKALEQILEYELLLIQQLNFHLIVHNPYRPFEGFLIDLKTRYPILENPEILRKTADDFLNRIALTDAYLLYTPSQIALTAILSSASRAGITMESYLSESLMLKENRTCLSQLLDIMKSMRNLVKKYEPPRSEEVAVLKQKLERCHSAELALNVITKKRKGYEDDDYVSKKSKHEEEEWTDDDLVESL
Sequence (P51948 whole entry partner): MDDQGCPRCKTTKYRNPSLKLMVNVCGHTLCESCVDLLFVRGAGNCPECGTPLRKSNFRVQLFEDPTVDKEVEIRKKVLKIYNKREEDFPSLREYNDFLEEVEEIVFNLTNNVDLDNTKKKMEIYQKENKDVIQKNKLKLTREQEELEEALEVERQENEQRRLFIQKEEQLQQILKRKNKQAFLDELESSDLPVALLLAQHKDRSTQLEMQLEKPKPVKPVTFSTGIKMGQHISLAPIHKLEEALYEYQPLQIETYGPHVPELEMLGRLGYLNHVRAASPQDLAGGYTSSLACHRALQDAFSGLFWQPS
protocol text: CDK7/cyclinH/Mat1 kinase assay, IMAP fluorescence polarization
pIC50: −log10 of the molar value.
Kindly state pIC50 for each of the entries shown.

Could you share which pIC50 value was measured for NCCNc1ncccc1-c1ccnc(Nc2cccc(Cl)c2)n1 [Compound 52] ?
> 5.30

Could you share which pIC50 value was measured for COc1cnccc1-c1ccnc(Nc2cccc(Cl)c2)n1 [Compound 45] ?
< 4.30

Could you share which pIC50 value was measured for COc1ncccc1-c1ccnc(Nc2cccc(S(N)(=O)=O)c2)n1 [Compound 99] ?
4.82 to 5.30

Could you share which pIC50 value was measured for NCCCNc1ncccc1-c1ccnc(Nc2cccc(Cl)c2)n1 [Compound 55] ?
> 5.30

Could you share which pIC50 value was measured for N#Cc1cccc(Nc2nccc(-c3cccnc3NCCCN)n2)c1 [Compound 60] ?
> 5.30

Could you share which pIC50 value was measured for CC(=O)NCCCNc1cc(-c2nc(Nc3cccc(Cl)c3)ncc2C)ccn1 [Compound 32] ?
> 5.30

Could you share which pIC50 value was measured for CC(=O)NCCCNc1nccc(-c2ccnc(Nc3cccc(Cl)c3)n2)c1C [Compound 6] ?
> 5.30

Could you share which pIC50 value was measured for COc1cnccc1-c1ccnc(Nc2cccc(S(C)(=O)=O)c2)n1 [Compound 46] ?
> 5.30

Could you share which pIC50 value was measured for CC(=O)NCCCNc1nccc(-c2ccnc(Nc3cccc([N+](=O)[O-])c3)n2)c1C [Compound 25] ?
> 5.30

Could you share which pIC50 value was measured for CC(C)(CN)CNc1ncccc1-c1ccnc(Nc2cccc(Cl)c2)n1 [Compound 61] ?
> 5.30

Could you share which pIC50 value was measured for CNCCNc1nccc(-c2ccnc(Nc3cccc(Cl)c3)n2)c1C [Compound 3] ?
> 5.30

Could you share which pIC50 value was measured for COc1ncccc1-c1ccnc(Nc2cccc(C#N)c2)n1 [Compound 91] ?
< 4.30

Could you share which pIC50 value was measured for OCCCNc1ncccc1-c1ccnc(Nc2cccc(Cl)c2)n1 [Compound 74] ?
> 5.30

Could you share which pIC50 value was measured for Clc1cccc(Nc2nccc(-c3cccnc3NCCCn3ccnc3)n2)c1 [Compound 80] ?
> 5.30

Could you share which pIC50 value was measured for COc1ccc(-c2ccnc(Nc3cccc(S(C)(=O)=O)c3)n2)c(OC)n1 [Compound 119] ?
< 4.30

----------
pIC50: −log10 of the molar value.
measured quantity: pIC50

# get_value(readout= pIC50, system= CDK4 (Homo sapiens, UniProt P11802)) for Cc1c(-c2ccnc(Nc3cccc(Cl)c3)n2)ccnc1NCCCn1ccnc1 [Compound 23]
4.30 to 4.82

# get_value(readout= pIC50, system= CDK4 (Homo sapiens, UniProt P11802)) for OCCCNc1ncccc1-c1ccnc(Nc2cccc(Cl)c2)n1 [Compound 74]
4.30 to 4.82

# get_value(readout= pIC50, system= CDK4 (Homo sapiens, UniProt P11802)) for CS(=O)(=O)c1cccc(Nc2nccc(-c3cccnc3NCCCN)n2)c1 [Compound 58]
> 5.30

# get_value(readout= pIC50, system= CDK4 (Homo sapiens, UniProt P11802)) for Cc1cnccc1-c1ccnc(Nc2cccc(Cl)c2)n1 [Compound 44]
4.30 to 4.82

# get_value(readout= pIC50, system= CDK4 (Homo sapiens, UniProt P11802)) for NCCNc1ncccc1-c1ccnc(Nc2cccc(Cl)c2)n1 [Compound 52]
> 5.30
